What log10(IC50) was measured for each of the following?
# System: A549
# assay-explanation: Cytotoxicity against human A549 cells incubated for 2 to 4 hrs by MTT assay
# Type: functional, cell-based
Please interpret these as log10 of IC50 where IC50 is in µM.

Measured log10(IC50), CCc1ccc(NCC(=O)Nn2c(-c3ccccc3)nc3ccccc3c2=O)cc1 : 0.32

Measured log10(IC50), O=C(CNc1ccc(Cl)cc1)Nn1c(-c2ccccc2)nc2ccccc2c1=O : 0.86

Measured log10(IC50), O=C(CNc1ccccc1)Nn1c(-c2ccccc2)nc2ccccc2c1=O : 1.12

Measured log10(IC50), COc1ccc(/C=C2/SC(Nn3c(-c4ccccc4)nc4ccccc4c3=O)=NC2=O)cc1 : 0.73

Measured log10(IC50), O=C1N=C(Nn2c(-c3ccccc3)nc3ccccc3c2=O)S/C1=C/c1ccc(O)cc1O : 0.51

Measured log10(IC50), O=C1N=C(Nn2c(-c3ccccc3)nc3ccccc3c2=O)S/C1=C/c1ccccc1 : -0.14

Measured log10(IC50), O=C(CNc1ccc(Br)cc1)Nn1c(-c2ccccc2)nc2ccccc2c1=O : 1.40

Measured log10(IC50), COc1ccc(/C=C2/SC(Nn3c(-c4ccccc4)nc4ccccc4c3=O)=NC2=O)cc1OC : 1.65

Measured log10(IC50), O=C1N=C(Nn2c(-c3ccccc3)nc3ccccc3c2=O)S/C1=C/c1ccc(Br)cc1 : 1.33

Measured log10(IC50), O=C(CNc1ccc(Cl)cc1Cl)Nn1c(-c2ccccc2)nc2ccccc2c1=O : 2.27

---

# System: MCF7
# assay-explanation: cells
# Type: functional, cell-based
# setup-conditions: Homo sapiens
# Description: Cytotoxicity against human MCF7 cells incubated for 2 to 4 hrs by MTT assay
What IC50 was measured for each of the following?
Note: unit µM is implicit; provide only the numeric part.

Measured IC50, CCc1ccc(NCC(=O)Nn2c(-c3ccccc3)nc3ccccc3c2=O)cc1 : 2.42

Measured IC50, O=C1N=C(Nn2c(-c3ccccc3)nc3ccccc3c2=O)S/C1=C/c1ccccc1 : 4.05

Measured IC50, COc1ccc(/C=C2/SC(Nn3c(-c4ccccc4)nc4ccccc4c3=O)=NC2=O)cc1OC : 1

Measured IC50, O=C(CNc1ccc(Cl)cc1)Nn1c(-c2ccccc2)nc2ccccc2c1=O : 1.74

Measured IC50, O=C1N=C(Nn2c(-c3ccccc3)nc3ccccc3c2=O)S/C1=C/c1ccc(O)cc1O : 7.49

---

# assay-explanation: cells
# Format: ADME, cell-based
# setup-conditions: Homo sapiens, PCS-800-011
# Description: Cytotoxicity against human PCS-800-011 cells
property: IC50 (µM)
Note: unit µM is implicit; provide only the numeric part.

Measured IC50, O=C(CNc1ccc(Cl)cc1)Nn1c(-c2ccccc2)nc2ccccc2c1=O : 51.2

Measured IC50, O=C1N=C(Nn2c(-c3ccccc3)nc3ccccc3c2=O)S/C1=C/c1ccccc1 : 44.3

Measured IC50, CCc1ccc(NCC(=O)Nn2c(-c3ccccc3)nc3ccccc3c2=O)cc1 : 36.9

Measured IC50, O=C1N=C(Nn2c(-c3ccccc3)nc3ccccc3c2=O)S/C1=C/c1ccc(O)cc1O : 17.3

Measured IC50, COc1ccc(/C=C2/SC(Nn3c(-c4ccccc4)nc4ccccc4c3=O)=NC2=O)cc1 : 31.4

---

What IC50 was measured for each of the following?
Note: unit nM is implicit; provide only the numeric part.

Here CCc1ccc(NCC(=O)Nn2c(-c3ccccc3)nc3ccccc3c2=O)cc1 was tested on Epidermal growth factor receptor (Homo sapiens, UniProt P00533), and its IC50 came to 143

Here O=C(CNc1ccc(Cl)cc1)Nn1c(-c2ccccc2)nc2ccccc2c1=O was tested on Epidermal growth factor receptor (Homo sapiens, UniProt P00533), and its IC50 came to 81.1

Here CN(C(=O)NCCCl)c1ccc2ncnc(Nc3cccc(Cl)c3)c2c1 was tested on Epidermal growth factor receptor (Homo sapiens, UniProt P00533), and its IC50 came to 81

---

# System: MCF7;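 also: cytotoxicity in human MCF7 cells read out by MTT assay, with incubation lasting 2 to 4 h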
# assay-explanation: cells
# Format: functional, cell-based
# setup-conditions: Homo sapiens
What IC50 was measured for each of the following?
Note: unit µM is implicit; provide only the numeric part.

Measured IC50, O=C(CNc1ccc(Br)cc1)Nn1c(-c2ccccc2)nc2ccccc2c1=O : 15.1

Measured IC50, O=C(CNc1ccc(Cl)cc1Cl)Nn1c(-c2ccccc2)nc2ccccc2c1=O : 4.41

Measured IC50, O=C1N=C(Nn2c(-c3ccccc3)nc3ccccc3c2=O)S/C1=C/c1ccc(Br)cc1 : 2.3

Measured IC50, O=C(CNc1ccccc1)Nn1c(-c2ccccc2)nc2ccccc2c1=O : 15.2

Measured IC50, COc1ccc(/C=C2/SC(Nn3c(-c4ccccc4)nc4ccccc4c3=O)=NC2=O)cc1 : 3.76

Values from ChEMBL document CHEMBL4819060
